# study-system: 5-HT2C receptor (Homo sapiens)
# Construct: expressed in transfected cells; host or cells: CHO cell line
# Sequence (P28335 33-458): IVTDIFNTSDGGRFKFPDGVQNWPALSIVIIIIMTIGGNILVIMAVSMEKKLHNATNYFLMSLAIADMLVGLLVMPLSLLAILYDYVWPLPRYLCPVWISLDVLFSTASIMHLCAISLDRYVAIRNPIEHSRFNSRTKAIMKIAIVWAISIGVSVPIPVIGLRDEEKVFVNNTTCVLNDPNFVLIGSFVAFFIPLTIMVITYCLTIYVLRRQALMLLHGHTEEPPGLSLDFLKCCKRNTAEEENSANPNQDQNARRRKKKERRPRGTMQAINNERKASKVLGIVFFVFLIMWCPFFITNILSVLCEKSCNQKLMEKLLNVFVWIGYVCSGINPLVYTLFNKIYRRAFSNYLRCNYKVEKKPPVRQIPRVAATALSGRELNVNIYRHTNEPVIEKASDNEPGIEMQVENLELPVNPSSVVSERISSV
# assay-protocol: Radioligand binding to the 5-HT2C receptor ([3H]-5-HT, CHO cell line)
Structures can show the parent of a compound that is named as a salt.
measured-parameter: pKi
By convention, pKi is the negative base-10 log of a molar concentration.

- C[C@H](N)Cn1c2c(c3c(F)c(F)ccc31)CCC2 [Example 1, fumarate]: 7.19
- C[C@H](N)Cn1c2c(c3ccccc31)CCC2 [Example 14]: 7.19
- C[C@@H](N)Cn1c2c(c3cccc(Cl)c31)CCC2 [Example 43]: 7.21

(Q) Find the recorded pKi belonging to C[C@H](N)Cn1c2c(c3ccc(F)cc31)CCC2 [Example 31] and report it.
(A) 7.19

(Q) Find the recorded pKi belonging to C[C@@H](N)Cn1c2c(c3ccccc31)CCC2 [Example 30] and report it.
(A) 7.72

(Q) Find the recorded pKi belonging to COc1ccc2c3c(n(C[C@H](C)N)c2c1)CCC3 [Example 11] and report it.
(A) 7.20

(Q) Find the recorded pKi belonging to COc1cc2c(cc1F)c1c(n2C[C@H](C)N)CCC1 [Example 37] and report it.
(A) 7.39

(Q) Find the recorded pKi belonging to CC(N)Cn1c2c(c3cc(F)c(F)cc31)CCC2 (centres unmarked) [Example 33] and report it.
(A) 7.20
